meta.source: patent US20240150797A1

# ASSAY: Specific activity of purified CHI, absorbance decrease at 384 nm, homoeriodictyol chalcone; note: unit not given here
# Type: biochemical
# ASSAY CONTEXT: purified CHI in 50 mM PBS, 100 μM substrate, 25° C.
RECORDED METRIC: Specific activity, Homoeriodctiol chalcone

{"MOLECULE": "CHIera Mut12: Chalcone isomerase variant 12 from Eubacterium ramulus, genetically engineered (protein, listed as Eubacterium ramulus) MADFKFEPMRSLIYVDCVSEDYRPKLQRWIYKVHIPDSISKFEPYVTKYAFYPSFPIPPQGDRFGYARMQLTEHHWLVSPLDPRLEINAIAETFPMDVLVWQGQIPAAAHTDAQIDSDGDAARAARKSNNAEGNPFIFAFLPMWWEKDLKGKGRTIEDGANYRFNMTIGFPEGVDKAEGEKWLFEKVVPILQAAPECTRVLASAVKKDINGCVMDWVLEIWFENQSGWYKVMVDDMKALEKPSWAQQDAFPFLKPYHNVCSAAVADYTPSNNLANYRGYITMR", "RECORDED VALUE": 9.8}
{"MOLECULE": "CHIera Mut7: Chalcone isomerase variant 7 from Eubacterium ramulus, genetically engineered (protein, listed as Eubacterium ramulus) MADFKFEPMRSLIYVDCVSEDYRPKLQRWIYKVHIPDSISTFEPYVTKYAFYPSFPIPPQGDRFGYARMQLTEHHWLVSELDPRLEIRAIAETFPMDVLVWQGQIPAAAHTDAQIDSDGDAGDAARKSNNAEGNPFIFAFLPMWWEKDLKGKGRTIEDGANYRFNMTIGFPEGVDKAEGEKWLFEKVVPILQAAPECTRVLASAVKKDINGCVMDWVLEIWFENQSGWYKVMVDDMKALEKPSWAQQDAFPFLKPYHNVCSAAVADYTPSNNLANYRGYITMR", "RECORDED VALUE": 62.2}
